- target.entity: Potassium channel subfamily K member 2 (Homo sapiens) (UniProt O95069)
- Sequence (whole entry): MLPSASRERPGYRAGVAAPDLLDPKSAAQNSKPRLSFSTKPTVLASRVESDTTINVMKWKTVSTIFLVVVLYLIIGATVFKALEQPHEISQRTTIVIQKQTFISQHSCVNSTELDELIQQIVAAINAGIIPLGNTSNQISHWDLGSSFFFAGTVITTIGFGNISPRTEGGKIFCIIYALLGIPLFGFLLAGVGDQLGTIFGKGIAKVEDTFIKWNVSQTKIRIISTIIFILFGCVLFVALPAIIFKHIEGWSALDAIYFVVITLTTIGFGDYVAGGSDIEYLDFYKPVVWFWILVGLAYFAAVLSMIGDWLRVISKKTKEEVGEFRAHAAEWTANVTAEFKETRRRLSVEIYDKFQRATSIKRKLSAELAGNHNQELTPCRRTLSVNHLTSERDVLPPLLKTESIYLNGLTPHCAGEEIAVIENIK
- procedure.summary: Activation of human TREK1 at 30 uM by thallium flux mobilization assay relative to control
endpoint: Activity (%)
Respond numerically; units are % and should not be typed.

entry.smiles: O=C(Nc1ccccc1C(=O)O)c1cccc(C(F)(F)F)c1
unit.text: %
endpoint.result: 28

Please fill in: Activity reported for `O=C(O)c1cccc(NC(=O)c2cccc(C(F)(F)F)c2)c1` = -10

Please fill in: Activity reported for `O=C(Nc1ncncc1C(=O)O)c1ccc(SC(F)(F)F)cc1` = -4

Please fill in: Activity reported for `O=C(O)c1ccccc1NC(=O)c1ccccc1C(F)(F)F` = 1

====

- target.entity: Potassium channel subfamily K member 10 (Homo sapiens, UniProt P57789)
- Sequence (P57789 whole entry): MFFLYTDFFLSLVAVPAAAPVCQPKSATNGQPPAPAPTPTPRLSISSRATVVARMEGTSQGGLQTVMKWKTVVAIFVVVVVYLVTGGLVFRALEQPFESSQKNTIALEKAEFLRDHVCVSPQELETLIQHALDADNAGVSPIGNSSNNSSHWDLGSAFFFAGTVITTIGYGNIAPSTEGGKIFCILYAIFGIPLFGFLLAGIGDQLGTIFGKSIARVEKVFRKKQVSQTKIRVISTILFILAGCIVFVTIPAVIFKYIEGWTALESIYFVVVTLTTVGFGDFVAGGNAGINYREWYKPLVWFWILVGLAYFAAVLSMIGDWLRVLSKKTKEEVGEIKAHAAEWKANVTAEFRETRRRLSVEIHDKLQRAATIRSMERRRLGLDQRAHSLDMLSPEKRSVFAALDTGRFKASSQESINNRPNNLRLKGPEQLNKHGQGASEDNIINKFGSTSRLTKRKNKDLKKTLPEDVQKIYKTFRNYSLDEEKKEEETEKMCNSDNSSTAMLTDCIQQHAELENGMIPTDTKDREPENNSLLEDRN
- procedure.summary: Activation of human TREK2 by thallium flux mobilization assay
EC50 strictly less than 7 µM = Fulfilled. Otherwise Not fulfilled.

Worked cases, answers included:
entry.smiles: Cc1sc(NC(=O)c2ccc(SC(F)(F)F)cc2)c(C(=O)O)c1C
label.value: Fulfilled
--
entry.smiles: O=C(Nc1cc(Cl)ccc1C(=O)O)c1ccc(SC(F)(F)F)cc1
label.value: Not fulfilled
--
entry.smiles: O=C(Nc1cc(F)c(Br)cc1C(=O)O)c1ccc(SC(F)(F)F)cc1
label.value: Fulfilled
--
entry.smiles: c1ccc(-c2nnn[nH]2)c(Nc2cccc3c2CCCC3)c1
label.value: Not fulfilled
--
entry.smiles: COc1ccc(C(=O)O)c(NC(=O)c2ccc(SC(F)(F)F)cc2)c1
label.value: Not fulfilled
--
entry.smiles: O=C(Nc1cc(Br)ccc1C(=O)O)c1ccc(SC(F)(F)F)cc1
label.value: Fulfilled
--
entry.smiles: O=C(Nc1ccc(Br)cc1C(=O)O)c1ccc(SC(F)(F)F)cc1
label.value: Not fulfilled
--
entry.smiles: O=C(Nc1ccccc1C(=O)O)c1ccc(SC(F)(F)F)cc1
label.value: Fulfilled
--
entry.smiles: O=C(Nc1sccc1C(=O)O)c1ccc(SC(F)(F)F)cc1
label.value: Not fulfilled
--
entry.smiles: O=C(Nc1ccc([N+](=O)[O-])cc1C(=O)O)c1ccc(SC(F)(F)F)cc1
label.value: Not fulfilled

# ---- query compound ----
Request: Does `COc1ccc(NC(=O)c2ccc(SC(F)(F)F)cc2)c(C(=O)O)c1` have EC50 strictly under 7 µM?
Result: Not fulfilled
